The values you see were collected from the supplement of paper PMC10949913.

- System: CU-ACC1
- MEASUREMENT_NOTES: area under concentration-response curve (viability) (AUC (a.u.)); higher = less active
- EXPERIMENTAL_SETUP: 48 h
EXPERIMENTAL_READOUT: area under concentration-response curve
// no unit, no text: just the number

Record excerpt, results attached:
COc1nc(C)nc(Cl)c1NC1=NCCN1
468
C#Cc1cccc(Nc2ncnc3cc(OCCOC)c(OCCO)cc23)c1
528
CC[C@]12\C=C/CN3CC[C@]4([C@@H](N(C)C5=C4C=C(C(=C5)OC)[C@]6(CC7C[C@H](CN(C7)CC8=C6[NH]C9=C8C=CC=C9)C(C)(F)F)C(=O)OC)[C@](O)([C@@H]1OC(C)=O)C(=O)OC)[C@H]23 (stereo partly drawn)
468
C\C1=C(/C)C(=O)\C(=C(\C)C1=O)C(CCCCCC(O)=O)C2=CC=CC=C2 (stereo not drawn)
545
C[S+]([O-])c1ccc(-c2nc(-c3ccc(F)cc3)c(-c3ccncc3)[nH]2)cc1 (stereo not drawn)
393

Fill in the blank: the reported area under concentration-response curve of `CN(NC(=O)CC(=O)NN(C)C(=S)c1ccccc1)C(=S)c1ccccc1` is ____.
402

Continue with `Cc1cc(Nc2cc(N3CCN(C)CC3)nc(/C=C/c3ccccc3)n2)n[nH]1`
401

Continue with `Cc1cccc(/C=N/Nc2cc(N3CCOCC3)nc(OCCc3ccccn3)n2)c1`
531

Continue with `O=C(CCCCCCC(=O)Nc1cccnc1)NO`
489

Continue with `Cc1cc(-c2cnn3c(NC[C@H]4C[C@@](C)(O)C4)cc(Oc4cccnc4)nc23)ccc1C(=O)NC1CC1`
626

Continue with `Nc1nc(F)nc2c1ncn2[C@@H]1O[C@H](COP(=O)(O)O)[C@@H](O)[C@@H]1O`
527

Continue with `C#CCN(C)[C@H](C)Cc1ccccc1`
467

Continue with `C[N]1N=CC=C1C/2=C(\C)N(C(=O)C(=C2)/C(=O)NCC3=NC=C(C=C3)[S+](C)([O-])=O)C4=CC=CC(=C4)C(F)(F)F`
380

Continue with `CNc1nc(Nc2ccc(C(=O)N3CCOCC3)cc2OC)ncc1Cl`
511

Continue with `CN1CCN(C(=O)[C@H]2[C@@H](C(=O)O)[C@H]3CC[C@@H]2O3)CC1`
628

Continue with `Nc1cc(c(cc1S(=O)(N)=O)S(N)(=O)=O)C(/Cl)=C(/Cl)Cl`
505

Continue with `CO[C@H]1O[C@@H]2O[C@@]3(C)CC[C@H]4[C@H](C)CC[C@@H]([C@H]1C)[C@@]24OO3`
470

Continue with `Cc1cccc(-c2[nH]c(C(C)(C)C)nc2-c2ccc3c(c2)OCO3)n1`
426

---

- Tested on: CU-ACC1
- MEASUREMENT_NOTES: area under concentration-response curve (viability) (AUC (a.u.)); higher = less active
- EXPERIMENTAL_SETUP: 48 h
EXPERIMENTAL_READOUT: area under concentration-response curve
// no unit, no text: just the number

CC[C@]12\C=C/CN3CC[C@]4([C@@H](N(C)C5=CC(=C(C=C45)[C@]6(C[C@H]7C[C@H](CN(C7)CC8=C6[NH]C9=C8C=CC=C9)C(C)(F)F)C(=O)OC)OC)[C@](O)([C@@H]1OC(C)=O)C(=O)OC)[C@H]23
538
C[C@]\12CC[C@H](O)CC1=C/CC3C2CC[C@@]\4(C)C3C\C=C4[N]5C=NC6=C5C=CC=C6 (some centres not stated)
540
C[S+](=O)([O-])N1CCN(Cc2cc3nc(-c4cccc5[nH]ncc45)nc(N4CCOCC4)c3s2)CC1
420
CCn1c(-c2nonc2N)nc2c(C#CC(C)(C)O)ncc(OC[C@H]3CCCNC3)c21
369
C[S+](=O)([O-])N(Cc1ccco1)CC(O)Cn1c2ccccc2c2ccccc21 (configuration not stated)
477

Fill in the blank: the reported area under concentration-response curve of `Cc1c(F)cccc1NC(=O)Nc1ccc(Cl)c([S+](=O)([O-])[C@H]2CCCNC2)c1O` is ____.
540

Continue with `c1cn2cc(-c3ccc4cn[nH]c4c3)nc(Nc3ccc(N4CCOCC4)cc3)c2n1`
509
